The values you see were collected from ChEMBL document CHEMBL4219124.

- ASSAY COMMENT: Plasma concentration in Dunkin-Hartley guinea pig MIA-induced osteoarthritic pain model at 100 mg/kg, po measured 2 hrs post dose
- Type: ADME, organism-based, Cavia porcellus
PROPERTY LABEL: concentration at 2 h (ng/mL)

[[record]]
chemical_string = "CC1(C)Cc2c(c(C(=O)Nc3ccc(F)c(C(F)(F)F)c3)cc3nc(Nc4c(F)cccc4Cl)[nH]c23)O1"
property_label = "concentration at 2 h"
reported = 678


====

- ASSAY COMMENT: Metabolic stability in rat liver microsomes assessed as parent compound remaining at 1 uM after 60 mins in presence of NADPH by LC-MS/MS analysis
- Type: ADME, microsome
- EXPERIMENTAL CONTEXT: read-out: Stability
PROPERTY LABEL: remaining at 1 h, 1 µM (%)

[[record]]
chemical_string = "CC1(C)Cc2c(c(C(=O)Nc3cc(C(F)(F)F)ccc3F)cc3nc(Nc4c(F)cccc4Cl)[nH]c23)O1"
reported = 96

[[record]]
chemical_string = "Cc1cccc(Cl)c1Nc1nc2cc(C(=O)Nc3ccc(F)c(C(F)(F)F)c3)c3c(c2[nH]1)CC(C)(C)O3"
reported = 97

[[record]]
chemical_string = "CC1(C)Cc2c(c(C(=O)Nc3cc(C(F)F)ccc3F)cc3nc(Nc4c(F)cccc4Cl)[nH]c23)O1"
reported = 86

[[record]]
chemical_string = "Cn1c(Nc2c(F)cccc2Cl)nc2cc(C(=O)Nc3cccc(C(F)(F)F)c3)c3c(c21)CC(C)(C)O3"
reported = 89

